# TARGET_SYSTEM: Cytochrome P450 2D6 (Homo sapiens)
# ASSAY_NOTES: Cytochrome P450 Family 2 Subfamily D Member 6 (CYP2D6) small molecule antagonists: luciferase reporter qHTS assay (AID 1671196); note: nearly all actives have a fitted effect of over 50% in size
# ASSAY_CONTEXT: P450-Glo CYP2D6 enzyme assay, luciferin luminescence, 1 h; series mostly up to 115 µM
Results filed as inconclusive are left out. Calls of active or inactive are those of the source. Calls come from the whole dose curve; as a rule, active = well fitted inhibition curve with a large enough effect in the repeat runs; inconclusive = weak or mixed curves; inactive = no such curve, though single readings can be large or run the other way.
Give your call using only these classes: active, inactive

Illustrative cases are given below, each with its answer.
INSERT INTO measurements (compound, target_system, category) VALUES
  ('Nc1c(Cl)c(F)nc(OCC(=O)O)c1Cl', 'Cytochrome P450 2D6 (Homo sapiens)', 'inactive'),
  ('CC(=O)CN(CC(C)=O)N=O', 'Cytochrome P450 2D6 (Homo sapiens)', 'inactive'),
  ('CN(C)CCc1c[nH]c2cccc(OP(=O)(O)O)c12', 'Cytochrome P450 2D6 (Homo sapiens)', 'inactive'),
  ('CCCCCCCCSC(=O)Oc1cc(Cl)nnc1-c1ccccc1', 'Cytochrome P450 2D6 (Homo sapiens)', 'inactive'),
  ('C[C@H](CN1CCOCC1)C(C(=O)N1CCCC1)(c1ccccc1)c1ccccc1', 'Cytochrome P450 2D6 (Homo sapiens)', 'active'),
  ('CCCC(C)(COC(N)=O)COC(N)=O', 'Cytochrome P450 2D6 (Homo sapiens)', 'inactive'),
  ('COC(=O)c1ccc(CBr)cc1', 'Cytochrome P450 2D6 (Homo sapiens)', 'active'),
  ('ClCC1CO1 (stereo unspecified)', 'Cytochrome P450 2D6 (Homo sapiens)', 'inactive'),
  ('c1ccc2c(c1)CCNC2', 'Cytochrome P450 2D6 (Homo sapiens)', 'active'),
  ('O=C(O)CBr', 'Cytochrome P450 2D6 (Homo sapiens)', 'inactive');

Query: Hey, what did the test say about O=C(O)c1c(Cl)ccc2cc(Cl)cnc12 ?
Reply: inactive

Query: Please let me know the test result on file for N#CC(Br)(Br)C(N)=O .
Reply: active

Query: How did this test come out for O=C(Cl)OCc1ccccc1 ?
Reply: inactive

###

# TARGET_SYSTEM: Nuclear receptor subfamily 1 group I member 2 (Homo sapiens)
# ASSAY_NOTES: Human pregnane X receptor (PXR) small molecule agonists, qHTS assay (AID 1346982); note: % is set by controls: 0 for no effect and ±100 for the full control effect; nearly all actives have a fitted effect of over 35% in size
# ASSAY_CONTEXT: PXR-Luc HepG2, CYP3A4 luciferase reporter, 24 h; series mostly up to 92.4 µM
# Text: National Center for Advancing Translational Sciences [NCATS] NIH Chemical Genomics Center [NCGC] U.S. Environmental Protection Agency [EPA] National Institutes of Environmental Health Sciences [NIEHS] National Toxicology Program [NTP] The human pregnane X receptor (hPXR) regulates the expression of several drug metabolizing enzymes and induction of these proteins is a major mechanism for developing drug resistance in cancer. […]
Results filed as inconclusive are left out. Active and inactive are the calls of the source. The call rests on the fitted dose curve; in most records, active means well fitted activation curve with a large enough effect in the repeat runs; inconclusive means weak or mixed curves; inactive means no such curve, though single readings can be large or run the other way.
Your response should consist of one outcome taken from 1 = active, 0 = inactive

Reference set, count: 2
INSERT INTO measurements (compound, category) VALUES
  ('CCc1ccc(C2CCNCC2)cc1', 0),
  ('CCCC[N+](=O)[O-]', 0);

Query: Please let me know the test result on file for CC(C)C(C)(N)C#N (stereo not given) .
Reply: 0

Query: Please let me know the test result on file for CCCOc1nn(C(=O)NS(=O)(=O)c2ccccc2C(=O)OC)c(=O)n1C .
Reply: 0

###

# TARGET_SYSTEM: Luciferin 4-monooxygenase (Photinus pyralis) (UniProt P08659)
# Sequence (P08659 whole entry, looked up): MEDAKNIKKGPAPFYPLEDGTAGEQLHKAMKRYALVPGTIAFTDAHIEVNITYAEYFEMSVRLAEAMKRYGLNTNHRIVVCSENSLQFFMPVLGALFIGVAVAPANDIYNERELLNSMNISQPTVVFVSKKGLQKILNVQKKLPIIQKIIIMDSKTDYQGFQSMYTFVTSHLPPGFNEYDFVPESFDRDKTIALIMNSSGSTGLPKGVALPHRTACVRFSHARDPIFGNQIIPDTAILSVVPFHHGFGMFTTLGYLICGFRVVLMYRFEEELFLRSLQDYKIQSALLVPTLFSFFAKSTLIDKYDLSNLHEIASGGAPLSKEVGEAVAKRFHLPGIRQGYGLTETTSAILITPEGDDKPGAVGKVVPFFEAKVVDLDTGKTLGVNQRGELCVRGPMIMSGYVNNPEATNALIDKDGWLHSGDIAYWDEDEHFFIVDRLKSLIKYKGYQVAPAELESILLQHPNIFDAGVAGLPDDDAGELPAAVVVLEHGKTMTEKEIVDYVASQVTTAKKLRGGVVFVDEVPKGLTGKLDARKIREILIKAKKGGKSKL
# ASSAY_NOTES: qHTS assay to identify small molecule inhibitors of firefly luciferase (AID 1224835); note: % is set by controls: 0 for no effect and ±100 for the full control effect; nearly all actives have a fitted effect of over 25% in size
# ASSAY_CONTEXT: purified P. pyralis luciferase, luminescence inhibition; series mostly up to 115 µM
# Text: U.S. Tox21 Program National Center for Advancing Translational Sciences [NCATS] NIH Chemical Genomics Center [NCGC] U.S. Environmental Protection Agency [EPA] National Institutes of Environmental Health Sciences [NIEHS] National Toxicology Program [NTP] U.S. Food and Drug Administration [FDA] Tox21 Assay Overview: Firefly (Photinus pyralis) luciferase is one of the most commonly used transcriptional reporters. […]
Results filed as inconclusive are left out. Active and inactive are the calls of the source. Calls follow the shape of the dose curve; as a rule, active = well fitted inhibition curve with a large enough effect in the repeat runs; inconclusive = weak or mixed curves; inactive = flat fitted curve, though single readings scatter.
QUANTITY_NAME: outcome

Example results:
INSERT INTO assay_data (compound, endpoint_result) VALUES
  ('CC[C@H](O)C(C[C@H](C)N(C)C)(c1ccccc1)c1ccccc1', 'inactive'),
  ('CCN[C@H](C)Cc1cccc(C(F)(F)F)c1', 'inactive'),
  ('N[C@@H](Cc1ccc(Oc2cc(I)c(O)c(I)c2)c(I)c1)C(=O)O', 'inactive'),
  ('C[C@H](N)C(=O)c1ccccc1', 'inactive'),
  ('CC(C)(C1CCC(O)CC1)C1CCC(O)CC1 (configuration not stated)', 'inactive');

Report outcome for each item below.
1. COc1cccc(C=O)c1
2. N=C(N)[Se]
3. CN(C)CCc1c[nH]c2cccc(OP(=O)(O)O)c12
4. CN1C(=O)COc2c(C(=O)NC3CN4CCC3CC4)cc(Cl)cc21 (configuration not stated)
5. CC(C)c1ccc(O)cc1
6. CCSC(=O)Cl
7. C=CCCC#N

Reply:
["inactive", "inactive", "inactive", "inactive", "inactive", "inactive", "inactive"]

Provide each entry's outcome from the list below.
1. Clc1ccc(C(Cl)(Cl)Cl)cn1
2. O=C(O)CBr
3. ClCCCCl
4. CC(O)CCl (configuration not stated)
5. C=CC1(C)OC(=O)N(c2cc(Cl)cc(Cl)c2)C1=O (configuration not stated)
6. CC(C)(C)NC[C@H](O)c1ccc(O)cc1Cl
7. Nc1c(Cl)c(F)nc(OCC(=O)O)c1Cl

Reply:
1. inactive
2. inactive
3. inactive
4. inactive
5. inactive
6. inactive
7. inactive

Batch of 8 compounds: report outcome for each.
1. CN(C)C1CCCCC1
2. CCN(CC)C1CCCCC1
3. CC(C)N(Cc1ccccc1)C(=O)C(C)(C)C
4. CCOC(=O)NC(C)(C)Cc1ccc(Cl)cc1
5. CCOP(=O)(CN(CCO)CCO)OCC
6. CCC(CC)(CNC(=O)CCCO)c1cccc(OC)c1
7. COc1ccc(C=O)cc1O
8. CN=CNc1ccc(C)cc1C

Reply:
1. inactive
2. inactive
3. inactive
4. inactive
5. inactive
6. inactive
7. inactive
8. inactive

###

# ASSAY_NOTES: qHTS assay for identifying genotoxic compounds that show differential cytotoxicity against isogenic chicken DT40 cell lines with known DNA damage response pathways - Rad54/Ku70 mutant cell line (AID 743015); note: nearly all actives have a fitted effect of over 60% in size
# ASSAY_CONTEXT: DT40 Rad54/Ku70 mutant viability, CellTiter-Glo, 40 h; series mostly up to 66.8 µM
# From the text: National Center for Advancing Translational Sciences [NCATS] NIH Chemical Genomics Center [NCGC] U.S. Environmental Protection Agency [EPA] National Institutes of Environmental Health Sciences [NIEHS] National Toxicology Program [NTP] U.S. Food and Drug Administration [FDA] DNA repair pathways play a critical role in cellular homeostasis by repairing DNA damage induced by endogenous processes and xenobiotics. […]
Inconclusive results are not listed. Activity calls are given as the source filed them. Calls follow the shape of the dose curve; as a rule, active = well fitted cell-killing curve with a large enough effect in the repeat runs; inconclusive = weak or mixed curves; inactive = no such curve, though single readings can be large or run the other way.
Hi there, use one of these labels in your reply, thanks! active, inactive

INSERT INTO assay_data (compound, category) VALUES
  ('O=C(O)C(Cl)Br (stereo not given)', 'inactive'),
  ('NCC1(CC(=O)O)CCCCC1', 'inactive'),
  ('COc1ccc2c(C(=O)c3ccc(Cl)cc3)c(C)n(CC(=O)O)c2c1', 'inactive');

Query: # fetch the recorded call for CCC(C)(C#N)N=NC(C)(C#N)CC (stereo not given) here
Reply: inactive

Query: Which outcome did this test record for the compound CCCCCCCC(=O)Cl ?
Reply: inactive

Query: Lab log entry: N#CC(Br)(Br)C(N)=O — outcome as called in the assay?
Reply: active

Query: Recorded test call requested for CCCCOC(C)=O
Reply: inactive

Query: // return assay outcome for CNC(=O)O/N=C(/CSC)C(C)(C)C
Reply: inactive

Query: Test call for this compound, please: CCOC(=O)Nc1cccc(OC(=O)Nc2ccccc2)c1
Reply: inactive

Query: // outcome(item) with item = CC(C)[N+](C)(CCC(C(N)=O)(c1ccccc1)c1ccccc1)C(C)C
Reply: inactive

###

# TARGET_SYSTEM: Estrogen receptor (Homo sapiens) (UniProt P03372)
# Sequence (P03372 whole entry, looked up): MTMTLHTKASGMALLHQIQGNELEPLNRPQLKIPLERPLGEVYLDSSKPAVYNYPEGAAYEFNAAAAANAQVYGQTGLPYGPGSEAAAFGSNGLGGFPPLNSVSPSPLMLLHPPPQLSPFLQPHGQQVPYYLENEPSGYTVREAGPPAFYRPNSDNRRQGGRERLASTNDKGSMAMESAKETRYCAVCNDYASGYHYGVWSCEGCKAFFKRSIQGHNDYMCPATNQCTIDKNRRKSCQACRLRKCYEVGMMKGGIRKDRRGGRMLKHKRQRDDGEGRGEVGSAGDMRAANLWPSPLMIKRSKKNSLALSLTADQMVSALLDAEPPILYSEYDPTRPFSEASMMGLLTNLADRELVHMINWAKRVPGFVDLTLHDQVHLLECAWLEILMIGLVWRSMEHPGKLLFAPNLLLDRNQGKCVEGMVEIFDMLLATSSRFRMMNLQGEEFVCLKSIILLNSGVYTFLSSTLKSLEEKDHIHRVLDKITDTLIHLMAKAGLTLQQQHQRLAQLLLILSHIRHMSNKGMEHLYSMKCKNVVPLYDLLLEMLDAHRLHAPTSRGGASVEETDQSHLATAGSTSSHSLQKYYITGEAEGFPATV
# ASSAY_NOTES: qHTS assay to identify small molecule antagonists of the estrogen receptor alpha (ER-alpha) signaling pathway (AID 743069); note: % is set by controls: 0 for no effect and ±100 for the full control effect
# ASSAY_CONTEXT: HEK293 ER-alpha-UAS-bla, beta-lactamase ratio, antagonist mode; series mostly up to 69.4 µM
Inconclusive results are not listed. Active and inactive are the calls of the source. Calls come from the whole dose curve; as a rule, active = well fitted curve in the direction sought with a large enough effect in the signal ratio in the repeat runs (not every such curve was filed as active); inconclusive = weak or mixed curves, or effect the other way; inactive = no such curve, though single readings can be large or run the other way; the % refers to the signal ratio.
QUANTITY_NAME: outcome

INSERT INTO results (compound, quantity_name, endpoint_result) VALUES
  ('CCNc1nc(Cl)nc(NC(C)(C)C)n1', 'outcome', 'inactive'),
  ('CC(C)(C1CCC(O)CC1)C1CCC(O)CC1 (stereo not given)', 'outcome', 'inactive'),
  ('COc1cc(CCN)cc(OC)c1OC', 'outcome', 'inactive'),
  ('CNC(=O)NC(O)C(Cl)(Cl)Cl (stereo not given)', 'outcome', 'inactive'),
  ('c1cncc([C@@H]2CCCCN2)c1', 'outcome', 'inactive'),
  ('CNC(=O)O/N=C(/CSC)C(C)(C)C', 'outcome', 'inactive'),
  ('OCC(Cl)CCl (stereo not given)', 'outcome', 'inactive'),
  ('C(COCC1CO1)OCC1CO1 (stereo not given)', 'outcome', 'inactive'),
  ('Cc1ccc2c(c1)C1CN(C)CCC1N2 (stereo not given)', 'outcome', 'inactive'),
  ('CN=CNc1ccc(C)cc1C', 'outcome', 'inactive');

Please go through the list and note outcome for each compound.
1. N[C@@H]1C[C@H]1c1ccccc1
2. COP(=O)(OC)O/C(C)=C/C(=O)N(C)C
3. NCCOS(=O)(=O)O
4. CCOP(=O)(CN(CCO)CCO)OCC
5. CCOC(=O)Nc1cccc(OC(=O)Nc2ccccc2)c1

Reply:
1. inactive
2. inactive
3. inactive
4. inactive
5. inactive
